EXPERIMENTAL_TARGET: T1, monkey GPC3 on HEK293T-monkey GPC3 cells (monkey)
T1 construct: whole, on cells
MEASUREMENT_DESCRIPTION: FACS on HEK293T-monkey GPC3 cells;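 also: flow cytometry binding of test antibodies to the cells, read as mean fluorescence intensity, with half-maximal concentration taken from fitted curves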
READOUT_KIND: Max MFI (MFI)
Kindly answer with a numeric value in MFI, unit omitted.

BINDER: F1.118.4 (antibody, human IgG1, kappa, V domains shown, Human-murine chimeric antibody) VH: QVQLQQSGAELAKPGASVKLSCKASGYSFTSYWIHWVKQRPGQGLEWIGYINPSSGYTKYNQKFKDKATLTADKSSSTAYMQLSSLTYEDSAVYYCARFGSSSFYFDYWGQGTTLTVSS VL: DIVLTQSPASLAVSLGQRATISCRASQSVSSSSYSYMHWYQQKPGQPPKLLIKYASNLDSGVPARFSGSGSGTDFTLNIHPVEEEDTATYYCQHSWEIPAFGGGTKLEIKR
ENDPOINT_UNIT: MFI
Max MFI: 6220
//
BINDER: F1.115.8 (antibody, human IgG1, kappa, V domains shown, Human-murine chimeric antibody) VH: EVQLQQSGPELVKPGASVKMSCKASGYTFTEYYMHWVKQSHGKSLEWIGYIYPNNGGNGYNQKFKGKATLTVDKSSSTAYMGLRSLTSEDSAVYYCVRGYYSNWYFDVWGTGTTVTVSS VL: DVLMTQTPLSLPVSLGDQASISCRSSQSIVHSNGKTYLEWYLQKPGQSPKLLIYKVSNRFSGVPDRFSGSGSGTDFTLKISRVEAEDLGVYYCFQGSHVPFTFGSGTKLEIKR
ENDPOINT_UNIT: MFI
Max MFI: 6390

Now let's try a different one.
Input line: GET /values?readout=Max MFI&item= F1.21.8 (antibody, human IgG1, kappa, V domains shown, Human-murine chimeric antibody) VH: EVQLQQSGPELVKPGASVKISCKTSGFLFTGHYMHWVKSSHGNILDWIGYIYPYNAISFYNQKFKGKATLTVDKSSNTAYMELRSLTSEDSAVYYCARGDYGNYVTAYWGQGTLVTVSA VL: DVLMTQTPLSLPVSLGDQASISCRSSQSIVHSSGNTYLEWYLQKPGQSPKLLIYKVSNRFSGVPDRFSGSGSGTDFTLKISRVEAEDLGVYYCFQGSHLPWTFGGGTKLDIKR
Output line: 6320
